Source of measurements: PubChem BioAssay AID651899

- ASSAY PROTOCOL: cytotoxicity in HEK293 cells, dose response, cytotoxicity control, cell-based, plate reader, cherry-pick (AID 651899);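 note: cells exposed to compound for 48 hours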
- MEASUREMENT PARAMETERS: series mostly up to 26 µM
Potency and affinity values are given separately. The source made the active and inactive calls. The rule behind the calls is not given here.
MEASUREMENT LABEL: activity change, negative = cytotoxicity

COMPOUND: COCCNC(=O)C[C@@H]1CC[C@@H]2[C@H](COc3ccc(NC(=O)Nc4cccc(F)c4)cc3C(=O)N2C)O1
MEASUREMENT LABEL: activity change, negative = cytotoxicity
TEST RESULT: inactive
//
COMPOUND: O=C(Nc1ncc2c(n1)CC(c1ccccc1)CC2=O)c1ccco1 (stereo not given)
MEASUREMENT LABEL: activity change, negative = cytotoxicity
TEST RESULT: inactive
//
COMPOUND: CN1c2ccc(-c3cccc(F)c3)cc2[C@H]2[C@H](CCN2C(=O)C2CC2)[C@H]1CO
MEASUREMENT LABEL: activity change, negative = cytotoxicity
TEST RESULT: inactive
//
COMPOUND: O=C(C[C@H]1C[C@H]2c3cc(NC(=O)c4cccnc4)ccc3O[C@H]2[C@H](CO)O1)NCc1ccccn1
MEASUREMENT LABEL: activity change, negative = cytotoxicity
TEST RESULT: inactive
//
COMPOUND: O=C(Nc1cccnc1)c1cc2nc(C3CC3)cc(C(F)(F)F)n2n1
MEASUREMENT LABEL: activity change, negative = cytotoxicity
TEST RESULT: inactive

---

- ASSAY PROTOCOL: cytotoxicity in HEK293 cells, dose response, cytotoxicity control, cell-based, plate reader, cherry-pick (AID 651899);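 note: cells exposed to compound for 48 hours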
- MEASUREMENT PARAMETERS: series mostly up to 26 µM
Entries with a potency or affinity are not part of this list. Active and inactive are the calls of the source. No rule for the calls is given here.
MEASUREMENT LABEL: activity change, negative = cytotoxicity

COMPOUND: O=C(Nc1cccc(F)c1)C1CCCN(c2cnccn2)C1 (stereo not given)
MEASUREMENT LABEL: activity change, negative = cytotoxicity
TEST RESULT: inactive

COMPOUND: O=C1CCCc2c1cc(C(=O)NCCCN1CCOCC1)c(=O)n2-c1ccc(Cl)cc1
MEASUREMENT LABEL: activity change, negative = cytotoxicity
TEST RESULT: inactive

COMPOUND: CCNC(=O)[C@@H]1[C@@H](CO)[C@@H]2Cn3c(ccc(-c4cccnc4)c3=O)[C@@H]2N1Cc1ccc2c(c1)OCO2
MEASUREMENT LABEL: activity change, negative = cytotoxicity
TEST RESULT: inactive

COMPOUND: O=C(Nc1cccnc1)c1ccc(N2CCCC2)c([N+](=O)[O-])c1
MEASUREMENT LABEL: activity change, negative = cytotoxicity
TEST RESULT: inactive

COMPOUND: O=C(C1CCOCC1)N1CC[C@@H]2[C@H]1c1cc(Br)ccc1N[C@@H]2CO
MEASUREMENT LABEL: activity change, negative = cytotoxicity
TEST RESULT: inactive

COMPOUND: COc1ccc(NC2CCCN(C(=O)c3ccc(C(C)=O)s3)C2)cc1 (stereo not given)
MEASUREMENT LABEL: activity change, negative = cytotoxicity
TEST RESULT: inactive

COMPOUND: CCCc1cc(=O)oc2c3c(cc(OCC(=O)NCCCn4ccnc4)c12)OC(C)(C)CC3
MEASUREMENT LABEL: activity change, negative = cytotoxicity
TEST RESULT: inactive

COMPOUND: CCN(CC)S(=O)(=O)c1ccc(NC(=O)c2ccc(Cl)nc2)cc1
MEASUREMENT LABEL: activity change, negative = cytotoxicity
TEST RESULT: inactive

COMPOUND: COc1ccc(NC(=O)c2cnc(C)cn2)cc1-n1cnnn1
MEASUREMENT LABEL: activity change, negative = cytotoxicity
TEST RESULT: inactive

COMPOUND: O=C(Nc1ccc(NS(=O)(=O)c2ccccc2)cc1)c1cccnc1
MEASUREMENT LABEL: activity change, negative = cytotoxicity
TEST RESULT: inactive

COMPOUND: C=C(C)n1c(=O)n(Cc2ccccc2C)c2ccccc21
MEASUREMENT LABEL: activity change, negative = cytotoxicity
TEST RESULT: inactive

COMPOUND: CN(C(=O)CSc1nc2ccccc2c(=O)n1-c1ccccc1Cl)C1CCS(=O)(=O)C1 (stereo not given)
MEASUREMENT LABEL: activity change, negative = cytotoxicity
TEST RESULT: inactive

COMPOUND: CC(=O)c1ccc(C(=O)N2CCCC(CCC(=O)N(C)CCc3ccccn3)C2)s1 (stereo not given)
MEASUREMENT LABEL: activity change, negative = cytotoxicity
TEST RESULT: inactive

COMPOUND: CN1c2ccc(-c3cccc(F)c3)cc2[C@H]2[C@H](CCN2C(=O)c2ccncc2)[C@H]1CO
MEASUREMENT LABEL: activity change, negative = cytotoxicity
TEST RESULT: inactive

COMPOUND: Cc1ccc(NC(=O)CSc2nc(=O)n(CCCN3CCOCC3)c3c2CCCC3)cc1F
MEASUREMENT LABEL: activity change, negative = cytotoxicity
TEST RESULT: inactive

COMPOUND: C[C@@H]1CN([C@@H](C)CO)C(=O)c2cc(C#Cc3cccnc3)cnc2O[C@H]1CN(C)S(C)(=O)=O
MEASUREMENT LABEL: activity change, negative = cytotoxicity
TEST RESULT: inactive

COMPOUND: Cc1ccc(Cc2c(C)nc3nc(SCC(=O)NCCN4CCOCC4)nn3c2C)cc1
MEASUREMENT LABEL: activity change, negative = cytotoxicity
TEST RESULT: inactive

COMPOUND: COc1ccc(CCNC(=O)c2cnc3n(c2=O)CCS3)cc1OC
MEASUREMENT LABEL: activity change, negative = cytotoxicity
TEST RESULT: inactive

COMPOUND: COC(=O)C[C@@H]1CC[C@@H]2[C@H](COC[C@@H](O)CN2C(=O)Nc2cccc(F)c2)O1
MEASUREMENT LABEL: activity change, negative = cytotoxicity
TEST RESULT: inactive

COMPOUND: O=C(Nc1ccc(F)cc1)NC1CCN(Cc2nnnn2Cc2ccco2)CC1
MEASUREMENT LABEL: activity change, negative = cytotoxicity
TEST RESULT: inactive
